MEASUREMENT TARGET: Aldehyde dehydrogenase, mitochondrial (Homo sapiens)
MEASUREMENT PROTOCOL: qHTS for Inhibitors of the Aldehyde Dehydrogenase Family (ALDH2) Primary screen (AID 2061308); further: nearly all actives have a fitted effect of over 55% in size
EXPERIMENTAL SETUP: ALDH2 enzyme inhibition qHTS, 1536-well; series mostly up to 56 µM
Records with an inconclusive call do not appear. The source made the active and inactive calls. The call rests on the fitted dose curve; in most records, active means well fitted inhibition curve with a large enough effect; inconclusive means small, poorly fitted or top-dose-only effect; inactive means flat fitted curve, though single readings scatter.
PROPERTY LABEL: activity change, negative = inhibition

OC1(c2ccc(Cl)cc2)c2ccccc2C2=NCCN21 (stereo not drawn)    inactive
O=C(N[C@@H](COc1ccc2[nH]c(=O)[nH]c2c1)c1ccccc1)c1cccn(Cc2ccc(F)c(F)c2)c1=O    inactive
CC[C@@H]1C[C@H]2CC[C@H](O2)[C@H](C)C(=O)O[C@@H](C)C[C@@H]2CC[C@@H](O2)[C@@H](C)C(=O)O[C@H](C)C[C@H]2CC[C@H](O2)[C@H](C)C(=O)O[C@@H](C)C[C@@H]2CC[C@@H](O2)[C@@H](C)C(=O)O1    inactive

* * *

MEASUREMENT PROTOCOL: BET inhibitor-based combinations targeting novel dependencies in MECOM-rearranged (r) AML: MV-4-11 cell line (AID 2202233); further: nearly all actives have a fitted effect of over 45% in size
EXPERIMENTAL SETUP: MV-4-11 AML viability, CellTiter-Glo luminescence, 48 h; series mostly up to 46 µM
Records with an inconclusive call do not appear. Calls of active or inactive are those of the source. The call rests on the fitted dose curve; in most records, active means well fitted inhibition curve with a large enough effect; inconclusive means small, poorly fitted or top-dose-only effect; inactive means no such curve, though single readings can be large or run the other way.
Choose the fitting class; nothing outside active, inactive is accepted.

CO[C@H]1CCC(O[C@H]2C[C@H]([C@]3(C)CC[C@]4(C[C@H](O)[C@@H](C)[C@@H]([C@@H](C)/C=C(\C)C(=O)[C@H](C)C[C@H](C)C(=O)O)O4)O3)O[C@]3(O[C@@H]([C@H]4O[C@@](O)(CO)[C@H](C)C[C@@H]4C)C[C@@H]3C)[C@@H]2C)O[C@@H]1C (stereo partly drawn)    active
Cc1[nH]ncc1-c1cc2nc([C@@H]3CC4CCN3CC4)[nH]c(=O)c2s1    active
COc1ccc2c(c[n+](C)c3c4cc5c(cc4ccc23)OCO5)c1OC    active
Cc1sc2c(c1C)C(c1ccc(Cl)cc1)=N[C@@H](CC(N)=O)c1nnc(C)n1-2    active
CCc1c(C(=O)C(N)=O)c2c(OCC(=O)O)cccc2n1Cc1ccccc1    inactive

Q: Which result was noted for this compound in the test: CC1=C2C[C@H]3[C@@H](CC=C4C[C@@H](O)CC[C@@]43C)[C@@H]2CC[C@]12O[C@@H]1C[C@H](C)CN[C@H]1[C@H]2C
A: inactive

Q: What do you get for CN(C)[C@@H]1C(=O)C(C(N)=O)=C(O)[C@@]2(O)C(=O)C3=C(O)c4c(O)cccc4[C@@](C)(O)[C@H]3[C@H](O)[C@@H]12 ?
A: inactive

Q: What do you get for C#C[C@]1(O)C=C[C@H]2[C@@H]3CCC4=CC(=O)CC[C@@H]4[C@H]3CC[C@@]21CC ?
A: active

* * *

MEASUREMENT TARGET: Cellular tumor antigen p53 (Homo sapiens) (UniProt P04637)
Sequence (P04637 whole entry, looked up): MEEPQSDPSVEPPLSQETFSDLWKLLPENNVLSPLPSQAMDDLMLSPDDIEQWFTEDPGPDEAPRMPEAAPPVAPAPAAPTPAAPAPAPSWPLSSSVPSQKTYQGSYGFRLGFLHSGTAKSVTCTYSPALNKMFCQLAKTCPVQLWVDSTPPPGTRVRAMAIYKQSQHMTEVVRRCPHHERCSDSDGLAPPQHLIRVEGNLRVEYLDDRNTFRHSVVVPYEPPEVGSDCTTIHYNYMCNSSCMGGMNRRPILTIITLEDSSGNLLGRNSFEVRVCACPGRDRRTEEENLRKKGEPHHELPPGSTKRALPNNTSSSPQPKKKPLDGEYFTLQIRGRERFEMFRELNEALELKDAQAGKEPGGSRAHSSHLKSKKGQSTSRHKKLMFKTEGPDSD
MEASUREMENT PROTOCOL: Primary qHTS for small molecule compounds that upregulate eGFP-tagged delta133p53alpha (in N-terminal) cells. (AID 2060322); further: potency means the concentration at half of the fitted maximal effect; nearly all actives have a fitted effect of over 75% in size
EXPERIMENTAL SETUP: NCI-H358 eGFP-delta133p53alpha fluorescence, 24 h
Inconclusive results are not listed. Calls of active or inactive are those of the source. Calls come from the whole dose curve; as a rule, active = well fitted activation curve with a large enough effect; inconclusive = small, poorly fitted or top-dose-only effect; inactive = no such curve, though single readings can be large or run the other way.
Listed here: items and their measured Potency.

Q: Recorded Potency of C=C(C)[C@@]12O[C@@H]1[C@@]1(C)C(=CC2=O)CC[C@@H](OC(C)=O)[C@@H]1C , please.
A: 30.1 µM (active)

Q: What do you get for O=C(N[C@@H](COc1ccc2[nH]c(=O)[nH]c2c1)c1ccccc1)c1cccn(Cc2ccc(F)c(F)c2)c1=O ?
A: 30.6 µM (active)

Q: What do you get for CC1=CC2OC3CC(O)[C@](C)([C@@]2(C)C(O)C1=O)[C@]31CO1 (some centres undefined) ?
A: 21.3 µM (active)

Q: What do you get for COc1ccc2c(c[n+](C)c3c4cc5c(cc4ccc23)OCO5)c1OC ?
A: 43.2 µM (active)

Q: What do you get for CC(C)(O)/C=C/C(=O)[C@](C)(O)[C@H]1[C@H](O)C[C@@]2(C)[C@@H]3CC=C4[C@@H](C[C@H](O)C(=O)C4(C)C)[C@]3(C)C(=O)C[C@]12C ?
A: 4.65 µM (active)

Q: What do you get for CC1=C(O)C(=O)C=C2C1=CC=C1[C@@]2(C)CC[C@@]2(C)[C@@H]3C[C@](C)(C(=O)O)CC[C@]3(C)CC[C@]12C ?
A: 17.2 µM (active)

Q: What do you get for COP(=S)(OC)SCN1C(=O)c2ccccc2C1=O ?
A: 21.9 µM (active)

Q: What do you get for Nc1ccc(Cl)cc1N ?
A: 22.4 µM (active)

Q: What do you get for CCCCCCCCCCCC[N+](C)(C)CCOc1ccccc1 ?
A: 21.9 µM (active)
